Where do these numbers come from? They come from ChEMBL document CHEMBL5537130.

experiment: in vitro; conditions: human, liver microsomes
Description: Metabolic stability in human liver microsomes assessed as half life at 1 uM preincubated with compound for 10 mins followed by NADPH addition and measured upto 60 mins by LC-MS/MS analysis
ASSAY_READOUT: half-life at 1 h, 1 µM (min)
All answers are understood in min, so give the number only.

Using known records, supply half-life at 1 h, 1 µM for `O=C(O)c1ccccc1Nc1cccc(Cl)c1-c1ccccc1` 33.5

* * *

experiment: in vitro; settings: mouse, liver microsomes
Description: Metabolic stability in mouse liver microsomes assessed as metabolic bioavailability at 1 uM preincubated with compound for 10 mins followed by NADPH addition and measured upto 60 mins by LC-MS/MS analysis
ASSAY_READOUT: Fh at 1 h, 1 µM (%)
All answers are understood in %, so give the number only.

Using known records, supply Fh at 1 h, 1 µM for `O=C(O)c1ccccc1Nc1cccc(Cl)c1-c1ccccc1` 39.9

* * *

assay: in vitro; details: human, liver microsomes
Description: Metabolic stability in human liver microsomes assessed as metabolic bioavailability at 1 uM preincubated with compound for 10 mins followed by NADPH addition and measured upto 60 mins by LC-MS/MS analysis
ASSAY_READOUT: Fh at 1 h, 1 µM (%)
All answers are understood in %, so give the number only.

Using known records, supply Fh at 1 h, 1 µM for `O=C(O)c1ccccc1Nc1cccc(Cl)c1-c1ccccc1` 24
